# Test system: K562
# protocol_description: NCI tumour cell line growth inhibition, 48 h
Activity calls are given as the source filed them. No stated cut-off is given here; in the data, active = GI50 up to about 1.1 µM and inactive = higher.
# valid calls are True (active), False (inactive); nothing else

* Cc1ccc(-n2cc(-c3ccc(Cl)cc3)c3c(N/N=C4\SCC(=O)N4C)ncnc32)cc1 | False
* CC(=O)OCC1OC(n2c(C)c(C)c(C)c(C#N)c2=S)C(OC(C)=O)C(OC(C)=O)C1OC(C)=O (stereo not drawn) | False

Name the outcome recorded for COc1cccc2c1C(=O)c1c(O)c3c(c(O)c1C2=O)C[C@@](O)(C(=O)CO)CC3OC1CC(NCCCCC(OC(C)=O)OC(C)=O)C(O)C(C)O1 (stereo partly drawn) in the assay.
True

Name the outcome recorded for COC1/C=C/C(C)C(C(C)C(OC)C(C)CCC(=O)C(C)C(C/C=C/N(C)C=O)OC)OC(=O)/C=C/C=C(\C)CC(OC)C(OC)C2=CC(=O)O[C@@H](C(C)C(OC)CC(OC)/C=C/C(C)C(O)C1)[C@H]2O (stereo partly drawn) in the assay.
True

Name the outcome recorded for N#Cc1cc2c(cc1Cl)Sc1nnc(Nc3ccccc3)n1S2(=O)=O in the assay.
False

----------
# System: SNB-78
# protocol_description: NCI tumour cell line growth inhibition, 48 h
The source made the active and inactive calls. Cut-off read from the data, not from the text of the source: active = GI50 up to about 1.1 µM and inactive = higher.
Reported GI50 values for a set of molecules

Example molecules with recorded GI50:
* CCCCCCCC(=O)OCC1OC(n2cc(F)c(=O)[nH]c2=O)C(N)C(OC(=O)CCCCCCC)C1O (stereo not given) | 20 µM (inactive)
* O=c1c2ccccc2sc2nc(O)nn12 | > 100 µM (inactive)
* COc1ccc(C(=O)c2c(C(C(=O)c3ccc(OC)cc3)C(=O)c3ccc(OC)cc3)n(C(=O)c3ccc(OC)cc3)c3ccccc23)cc1 | > 100 µM (inactive)
* CCc1cc(C)cc2[n+]1CC=C2C.[O-][Cl+3]([O-])([O-])[O-] | > 100 µM (inactive)
* Cn1cnc([N+](=O)[O-])c1Sc1nccc(O)n1 | > 100 µM (inactive)
* CCOC(OCC)(OCC)C(Br)CC (stereo not given) | > 100 µM (inactive)
* Cc1nc(C(=O)O)c2ccccc2n1 | > 100 µM (inactive)
* CCN(CC)CCOC(c1ccccc1)c1ccccc1.CCOC(=O)Nc1ccc(S(=O)(=O)OC)cc1.CCOC(=O)Nc1ccc(S(=O)(=O)OC)cc1.Nc1ccc(C(=O)O)c(O)c1 | > 100 µM (inactive)
* COc1ccc(/C(=N\NC(=O)NN)C(c2ccc(OC)cc2)C2(O)C(=O)Nc3c(Cl)cc(Cl)cc32)cc1 (stereo not given) | > 100 µM (inactive)

As a next step, examine the molecule that follows.
Requested field: GI50. Item: COC(=O)c1ccccc1NCc1cc(O)ccc1O
20.3 µM (inactive)

----------
# Test system: HOP-92
# protocol_description: NCI tumour cell line growth inhibition, 48 h
Calls of active or inactive are those of the source. No stated cut-off is given here; in the data, active = GI50 up to about 1.1 µM and inactive = higher.
# valid calls are active, inactive; nothing else

* O=C1Nc2ccc([N+](=O)[O-])cc2/C1=N/NC(=S)Nc1ccc([N+](=O)[O-])cc1 | inactive

Name the outcome recorded for CO/C1=C\C(C)=C\C(C)C(O)C(C)C/C(C)=C/C=C/C(OC)C(C(C)C(O)C(C)C2(O)CC(O)C(C)C(C(C)C)O2)OC1=O (centres undefined) in the assay.
active

Name the outcome recorded for Cc1cc(NC(=O)C(=O)Cc2nc3ccccc3s2)ccc1Cl in the assay.
inactive

Name the outcome recorded for COC1/C=C/C(C)C(C(C)C(OC)C(C)CCC(=O)C(C)C(C/C=C/N(C)C=O)OC)OC(=O)/C=C/C=C(\C)CC(OC)C(OC)C2=CC(=O)O[C@@H](C(C)C(OC)CC(OC)/C=C/C(C)C(O)C1)[C@H]2O (some centres undefined) in the assay.
active

Reference source: ChEMBL document CHEMBL1201862
